# credit: the supplement of paper PMC6555819

tested on: PPARg:RXRa 90nM:30nM, anti-RXR (NR concentration 90 nM, RXRa partner concentration 30 nM); experiment: PBM binding z-score (relative to random genomic background probes); higher = stronger binding; sequences stand for … in GC…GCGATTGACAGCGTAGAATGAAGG

Entry Sequence | Assay Target | PBM binding z-score
TCATATAGGTAAAGGTAAAAGTCGAACGATATGA | PPARg:RXRa 90nM:30nM, anti-RXR (NR concentration 90 nM, RXRa partner concentration 30 nM) | 3.8
TATCCTAGGTCATTCAGGGGCCAGTATAGAAAGC | PPARg:RXRa 90nM:30nM, anti-RXR (NR concentration 90 nM, RXRa partner concentration 30 nM) | 3.05
ATCGAAAGGTTGAAGGTGAGTATACCCACCCGAA | PPARg:RXRa 90nM:30nM, anti-RXR (NR concentration 90 nM, RXRa partner concentration 30 nM) | 1.52
CAACCTAGGTCAAGAGGTCAAAGTCCGCTTCCCG | PPARg:RXRa 90nM:30nM, anti-RXR (NR concentration 90 nM, RXRa partner concentration 30 nM) | 5.86
TCTGCTAGGTCAGTTAGTCAGCTAACGAGCTGCC | PPARg:RXRa 90nM:30nM, anti-RXR (NR concentration 90 nM, RXRa partner concentration 30 nM) | 1.46
CGTCCTAGGTCAGAGAGGTCAGTGAATGCCGAGT | PPARg:RXRa 90nM:30nM, anti-RXR (NR concentration 90 nM, RXRa partner concentration 30 nM) | 1.95
AGTCAAACTTCACTAGGTAACGTAAGATTCAGCT | PPARg:RXRa 90nM:30nM, anti-RXR (NR concentration 90 nM, RXRa partner concentration 30 nM) | 0.101
CGAACTAGGTCATTGACAGGACAGTGCATAGTAA | PPARg:RXRa 90nM:30nM, anti-RXR (NR concentration 90 nM, RXRa partner concentration 30 nM) | 5.79
CGTCAAAGTTCAACTAAGGTAACATAAAGCACGC | PPARg:RXRa 90nM:30nM, anti-RXR (NR concentration 90 nM, RXRa partner concentration 30 nM) | 4.55
TCTATTTGTTGATTAGGGCAACCGAAACAGCGGA | PPARg:RXRa 90nM:30nM, anti-RXR (NR concentration 90 nM, RXRa partner concentration 30 nM) | 2.81
CCGAGTAGGTTATGGGACATTCAGGCAACGGTGA | PPARg:RXRa 90nM:30nM, anti-RXR (NR concentration 90 nM, RXRa partner concentration 30 nM) | 1.74
CAAACTAGGTCGAGGTCAAAGTCGGTTTGTGCCA | PPARg:RXRa 90nM:30nM, anti-RXR (NR concentration 90 nM, RXRa partner concentration 30 nM) | 5.58
